The reported measurements were obtained from patent US20250250357A1.

The following binders are listed with their measured OD450 values.
# target under test: T1, human MSLN-R3-his protein (human, UniProt Q13421 487-598)
# T1 construct: Made in HEK293E cells, purified on nickel column; also called hMSLN-R3-his; human MSLN-R3 protein; not shown: His tag
# T1 sequence (Q13421 495-606): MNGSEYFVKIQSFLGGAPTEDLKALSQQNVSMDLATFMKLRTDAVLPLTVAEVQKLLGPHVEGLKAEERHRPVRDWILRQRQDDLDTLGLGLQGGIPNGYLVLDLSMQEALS
# test description: ELISA, coated antigen, no antibody (blank)
measured metric: OD450

binder	measured metric	val
S009-F4-127.10 chimeric antibody (antibody, human IgG1, kappa, V domains shown, Human-murine chimeric antibody, human IgG1/kappa constant regions) VH: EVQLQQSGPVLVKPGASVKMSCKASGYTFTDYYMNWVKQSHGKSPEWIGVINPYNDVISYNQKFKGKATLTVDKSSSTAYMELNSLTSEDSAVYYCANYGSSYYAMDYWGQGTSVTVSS VL: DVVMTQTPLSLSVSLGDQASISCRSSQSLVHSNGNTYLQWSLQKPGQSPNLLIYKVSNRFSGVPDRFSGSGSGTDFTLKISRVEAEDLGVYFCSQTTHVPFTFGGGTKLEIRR	OD450	0.07
S009-F5-9.16 chimeric antibody (antibody, human IgG1, kappa, V domains shown, Human-murine chimeric antibody, human IgG1/kappa constant regions) VH: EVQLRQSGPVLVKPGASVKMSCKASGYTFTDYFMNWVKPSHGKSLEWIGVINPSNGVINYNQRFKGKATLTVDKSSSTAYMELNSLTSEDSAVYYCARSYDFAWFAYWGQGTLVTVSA VL: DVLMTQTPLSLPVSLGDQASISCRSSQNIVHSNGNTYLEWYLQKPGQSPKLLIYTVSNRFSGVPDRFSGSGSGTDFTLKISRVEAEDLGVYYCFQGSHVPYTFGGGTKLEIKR	OD450	0.05
S009-F6-76.1 chimeric antibody (antibody, human IgG1, kappa, V domains shown, Human-murine chimeric antibody, human IgG1/kappa constant regions) VH: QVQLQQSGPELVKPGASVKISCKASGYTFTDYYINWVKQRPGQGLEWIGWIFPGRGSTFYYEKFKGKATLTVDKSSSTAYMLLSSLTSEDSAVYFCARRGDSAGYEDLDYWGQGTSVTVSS VL: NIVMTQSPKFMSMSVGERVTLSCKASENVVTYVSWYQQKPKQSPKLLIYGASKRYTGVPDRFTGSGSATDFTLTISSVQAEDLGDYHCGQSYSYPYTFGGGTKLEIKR	OD450	0.05
